ASSAYED SYSTEM: Sodium-dependent noradrenaline transporter (Homo sapiens, UniProt P23975)
Sequence (P23975 whole entry): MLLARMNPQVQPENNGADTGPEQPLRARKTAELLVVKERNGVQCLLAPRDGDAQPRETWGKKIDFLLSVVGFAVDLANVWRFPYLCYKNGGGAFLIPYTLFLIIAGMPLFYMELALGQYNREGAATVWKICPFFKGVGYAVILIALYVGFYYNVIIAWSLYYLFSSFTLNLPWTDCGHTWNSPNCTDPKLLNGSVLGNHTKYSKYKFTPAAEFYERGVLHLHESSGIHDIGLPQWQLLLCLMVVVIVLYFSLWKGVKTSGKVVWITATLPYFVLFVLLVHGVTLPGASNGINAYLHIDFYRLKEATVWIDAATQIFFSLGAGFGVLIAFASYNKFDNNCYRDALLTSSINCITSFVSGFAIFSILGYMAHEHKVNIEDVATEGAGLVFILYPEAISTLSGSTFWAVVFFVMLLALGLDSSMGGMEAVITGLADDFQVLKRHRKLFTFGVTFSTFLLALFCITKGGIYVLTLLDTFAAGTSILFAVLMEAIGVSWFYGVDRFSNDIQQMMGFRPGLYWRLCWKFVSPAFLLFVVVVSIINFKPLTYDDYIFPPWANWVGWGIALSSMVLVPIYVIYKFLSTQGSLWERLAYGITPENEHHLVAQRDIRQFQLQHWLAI
Measured IC50 of individual entries
ASSAY METRIC: IC50 (nM)

                                   compound                            assayed_system  measured_number
0  CCCOC(c1ccc(Cl)c(Cl)c1)C1CNC1 (stereo not given)  Sodium-dependent noradrenaline transporter (Homo sapiens, UniProt P23975)               10
1  Fc1cc(C(Oc2ccccc2)C2CNC2)ccc1Cl (stereo not given)  Sodium-dependent noradrenaline transporter (Homo sapiens, UniProt P23975)               21
2  Cl.c1ccc(OC(c2ccc3ccccc3c2)C2CNC2)cc1 (stereo not given)  Sodium-dependent noradrenaline transporter (Homo sapiens, UniProt P23975)              3.1
3  Clc1ccc(OC(c2ccc3ccccc3c2)C2CNC2)cc1Cl (stereo not given)  Sodium-dependent noradrenaline transporter (Homo sapiens, UniProt P23975)               16
4  CCCOC(c1ccc2ccccc2c1)C1CNC1.Cl (stereo not given)  Sodium-dependent noradrenaline transporter (Homo sapiens, UniProt P23975)               12

====

In this section we review reported Vd/F values for a set of molecules.
TEST DETAILS: Apparent volume of distribution during terminal phase in Sprague-Dawley rat at 2 mg/kg, po
Format: ADME, organism-based
Set-up: dose 2 mg/kg, route oral
ASSAY CONTEXT: in vivo, read-out: Vz/F
ASSAY METRIC: Vd/F (L/kg)

>>> print(df.to_string())
                                   molecule  measured_number
0  CCCOC(c1ccc2ccccc2c1)C1CNC1.Cl (configuration not stated)              249
1  Cl.c1ccc(OC(c2ccc3ccccc3c2)C2CNC2)cc1 (configuration not stated)              241

====

TEST DETAILS: Terminal half life in Sprague-Dawley rat at 2 mg/kg, po
Format: ADME, organism-based
Parameters: dose 2 mg/kg, route oral
ASSAY CONTEXT: in vivo, read-out: beta t1/2 (converted)
Listing of recorded half-life by entry.
ASSAY METRIC: half-life (h)

In [3]: df
Out[3]:
                                   compound  assay_metric  measured_number
0  Cl.c1ccc(OC(c2ccc3ccccc3c2)C2CNC2)cc1 (configuration not stated)     half-life              3.3
1  CCCOC(c1ccc2ccccc2c1)C1CNC1.Cl (configuration not stated)     half-life              4.8

====

A short record of IC50 observed with Sodium-dependent serotonin transporter (Homo sapiens) follows.
Sequence (P31645 whole entry): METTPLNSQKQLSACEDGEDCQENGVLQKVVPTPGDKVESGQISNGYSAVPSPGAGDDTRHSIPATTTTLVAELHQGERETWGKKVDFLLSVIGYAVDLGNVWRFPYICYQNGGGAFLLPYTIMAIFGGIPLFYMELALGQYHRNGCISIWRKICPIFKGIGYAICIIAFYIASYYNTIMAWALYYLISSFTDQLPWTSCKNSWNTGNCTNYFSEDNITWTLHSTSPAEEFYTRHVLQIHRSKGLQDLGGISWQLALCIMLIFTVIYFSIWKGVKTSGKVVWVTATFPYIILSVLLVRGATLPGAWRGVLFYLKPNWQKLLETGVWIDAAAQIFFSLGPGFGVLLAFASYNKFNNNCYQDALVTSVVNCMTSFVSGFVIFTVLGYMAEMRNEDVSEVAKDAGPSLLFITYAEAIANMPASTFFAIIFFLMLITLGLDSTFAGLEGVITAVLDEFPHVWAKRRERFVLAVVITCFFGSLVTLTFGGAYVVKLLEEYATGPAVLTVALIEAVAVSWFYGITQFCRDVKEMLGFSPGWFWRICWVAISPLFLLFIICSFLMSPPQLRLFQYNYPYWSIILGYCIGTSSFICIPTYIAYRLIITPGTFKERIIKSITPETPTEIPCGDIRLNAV
ASSAY METRIC: IC50 (nM)

>>> print(df.to_string())
                                   compound                            assayed_system  measured_number
0  CCCOC(c1ccc(Cl)c(Cl)c1)C1CNC1 (stereo not given)  Sodium-dependent serotonin transporter (Homo sapiens)               44
1  Cl.c1ccc(OC(c2ccc3ccccc3c2)C2CNC2)cc1 (stereo not given)  Sodium-dependent serotonin transporter (Homo sapiens)              8.3
2  Clc1ccc(OC(c2ccc3ccccc3c2)C2CNC2)cc1Cl (stereo not given)  Sodium-dependent serotonin transporter (Homo sapiens)               35
3  Fc1cc(C(Oc2ccccc2)C2CNC2)ccc1Cl (stereo not given)  Sodium-dependent serotonin transporter (Homo sapiens)              142
4  CCCOC(c1ccc2ccccc2c1)C1CNC1.Cl (stereo not given)  Sodium-dependent serotonin transporter (Homo sapiens)              6.8
